assay: NCI Yeast Anticancer Drug Screen. Data for the cln2 rad14 strain (AID 165);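 also: 0% = growth equal to vehicle treated cultures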; details: S. cerevisiae cln2 rad14 strain, at 5.0 µM (retest, dose inferred, filed as 0.5), hits give high values
About 79,000 compounds went through this panel and 15% of them were active in at least one assay; those are over-represented in the sample as a whole.
observation-type: growth inhibition (%)
Answers are plain numbers, in %.

Examples with their reported growth inhibition follow.
molecule	observation-type	result-number
NC(CCCCCC(N)C(=O)O)C(=O)O (configuration not stated)	growth inhibition	-60
CCN(CC)CCOc1ccc(/C(C#N)=C/c2ccc3ccccc3c2)cc1	growth inhibition	28
Cc1ccc(SCc2ccccc2Cl)nn1	growth inhibition	3
c1ccc(N2CCN(c3ccccc3)C2Cc2c[nH]c3ccccc23)cc1	growth inhibition	17
O=C(CC(=O)c1cccnc1)c1cccnc1	growth inhibition	5

Quick batch: growth inhibition for everything below.
1. CSc1nc(NC2OC(CO)C(O)C(O)C2O)c(Cl)c(=O)[nH]1 (configuration not stated)
2. Cc1sc(N=Nc2c(O)[nH]c3ccccc23)nc1-c1ccccc1
3. c1ccc(Cn2nnc(-c3ccccc3)c2-c2ccccc2)cc1
4. CC(=O)c1c(O)ccc2nc3ccccc3nc12
5. CC(=O)/C(=C\c1ccc(Cl)cc1Cl)C(=O)CCN(C)C
6. C[N+]1(c2ccccc2)C=C(c2ccccc2)SC1=S (configuration not stated)
7. CCO/C=C1/N=C(c2cc(Cl)cc([N+](=O)[O-])c2)OC1=O

1: 1; 2: 14; 3: 6; 4: 12; 5: 4; 6: 1; 7: 18
